Species: Rattus norvegicus
test_protocol: DrugMatrix - Regimen: Daily Repeat
Assay type: toxicity, organism-based, Sprague-Dawley
Set-up: regimen Daily Repeat, gender Male, age 6-8 weeks
condition: in vivo, po, 0 mg/kg, 120 h, tissue Plasma, route oral GAVAGE, dose level Control, time 5 day, vehicle .5 % CMC
measurement_name: CARBON DIOXIDE (mmol/L)
Form entry: value (mmol/L) — number only.

Cc1cnc(C(=O)NCCc2ccc(S(=O)(=O)NC(=O)NC3CCCCC3)cc2)cn1 [GLIPIZIDE]: 28.33
CC(C(=O)O)c1ccc(-c2ccccc2)c(F)c1 (centres undefined) [FLURBIPROFEN]: 27.5

Answer with reported CARBON DIOXIDE of C[C@@H]1CC[C@H]2[C@@H](C)C(=O)O[C@@H]3O[C@@]4(C)CC[C@@H]1[C@]32OO4 [ARTEMISININ]
27.67

Hello, please tell me recorded CARBON DIOXIDE for this one: CN1C(=O)CN=C(c2ccccc2)c2cc(Cl)ccc21 [DIAZEPAM]
30.33

Query CARBON DIOXIDE for Nc1cccc(Cl)c1 [3-CHLOROANILINE]
27

Return the recorded CARBON DIOXIDE value; entry: COc1ccccc1OCC(O)COC(N)=O (centres undefined) [METHOCARBAMOL]
27.67

Look up and report measured CARBON DIOXIDE for this entry: COc1ccc(/C=C/C(=O)Nc2ccccc2C(=O)O)cc1OC
27.5

Provide CARBON DIOXIDE value for the following compound: CC(C)(Sc1cc(C(C)(C)C)c(O)c(C(C)(C)C)c1)Sc1cc(C(C)(C)C)c(O)c(C(C)(C)C)c1 [PROBUCOL]
27.5

Supply recorded CARBON DIOXIDE for CCCCC1C(=O)N(c2ccccc2)N(c2ccccc2)C1=O [PHENYLBUTAZONE] here.
26.33

====

Let's look at some compounds and their measured POTASSIUM.
Organism: Rattus norvegicus
test_protocol: DrugMatrix - Regimen: Daily Repeat
Format: toxicity, organism-based, Sprague-Dawley
Parameters: regimen Daily Repeat, gender Male, age 6-8 weeks
condition: in vivo, po, 0 mg/kg, 72 h, tissue Plasma, route oral GAVAGE, dose level Control, time 3 day, vehicle 100 % SALINE

Completed entries (count: 3):
Cc1cc(CC(=O)O)n(C)c1C(=O)c1ccc(Cl)cc1 [ZOMEPIRAC]: 6.88 MEQ/L
CC(=O)OCC(CCn1cnc2cnc(N)nc21)COC(C)=O [FAMCICLOVIR]: 6.75 MEQ/L
Oc1ccccc1O [CATECHOL]: 6.88 MEQ/L

Then this compound:
Quote POTASSIUM reported for CCCc1nn(C)c2c(=O)[nH]c(-c3cc(S(=O)(=O)N4CCN(C)CC4)ccc3OCC)nc12 please.
6.75 MEQ/L

====

Species: Rattus norvegicus
test_protocol: DrugMatrix - Regimen: Daily Repeat
Type: toxicity, organism-based, Sprague-Dawley
Design: regimen Daily Repeat, gender Male, age 6-8 weeks
condition: in vivo, po, 0 mg/kg, 120 h, tissue Blood, route oral GAVAGE, dose level Control, time 5 day, […]
measurement_name: ERYTHROCYTE COUNT (x10E6/uL)
Enter your answer as a number in x10E6/uL; do not include the unit.

A selection of reference data follows.
CCn1cc(C(=O)O)c(=O)c2cc(F)c(N3CCNCC3)nc21 [ENOXACIN]: 5.24
OCCN1CCN(CCCN2c3ccccc3Sc3ccc(C(F)(F)F)cc32)CC1 [FLUPHENAZINE]: 5.51
CC[C@H](C)C(=O)O[C@H]1C[C@@H](C)C=C2C=C[C@H](C)[C@H](CC[C@@H]3C[C@@H](O)CC(=O)O3)[C@H]21 [LOVASTATIN]: 5.19
C#C[C@]1(O)CC[C@H]2[C@@H]3CCc4cc(O)ccc4[C@H]3CC[C@@]21C [ETHINYL ESTRADIOL]: 5.24
COc1ncnc(NS(=O)(=O)c2ccc(N)cc2)c1OC [SULFADOXINE]: 5.25
CC(C)Cc1ccc(CC(=O)O)cc1 [IBUFENAC]: 5.75

Look up and state reported ERYTHROCYTE COUNT for CC(=O)Nc1nnc(S(N)(=O)=O)s1 [ACETAZOLAMIDE]
5.25

# return recorded ERYTHROCYTE COUNT for input CN(CCOc1ccc(CC2SC(=O)NC2=O)cc1)c1ccccn1 (centres undefined) [ROSIGLITAZONE]
5.36

Hello, please tell me recorded ERYTHROCYTE COUNT for this one: CC(CCc1ccc(O)cc1)NCCc1ccc(O)c(O)c1 (centres undefined) [DOBUTAMINE]
6.62

====

Organism: Rattus norvegicus
test_protocol: DrugMatrix - Regimen: Daily Repeat
Format: toxicity, organism-based, Sprague-Dawley
Parameters: regimen Daily Repeat, gender Male, age 6-8 weeks
condition: in vivo, po, 1500 mg/kg, 72 h, tissue Blood, route oral GAVAGE, dose level High, time 3 day, vehicle .5 % CMC
measurement_name: MONOCYTE (%)
All answers are understood in %, so give the number only.

C[C@@H](O)[C@H]1C(=O)N2C(C(=O)O)=C(S[C@@H]3CN[C@H](C(=O)N(C)C)C3)[C@H](C)[C@H]12 [MEROPENEM]: 0
CC(C)(Sc1cc(C(C)(C)C)c(O)c(C(C)(C)C)c1)Sc1cc(C(C)(C)C)c(O)c(C(C)(C)C)c1 [PROBUCOL]: 0.33
O=c1cc(-c2ccccc2)oc2ccc3ccccc3c12 [BETA-NAPHTHOFLAVONE]: 2.5
CCOC(=O)[C@H](CCc1ccccc1)N[C@@H](C)C(=O)N1CCC[C@H]1C(=O)O: 0.67

Query compound follows.
For the compound Nc1nc2c(c(=O)[nH]1)N(C=O)C(CNc1ccc(C(=O)N[C@@H](CCC(=O)O)C(=O)O)cc1)CN2 (stereo not given in full) [LEUCOVORIN] , report MONOCYTE.
0.33

====

Organism: Rattus norvegicus
test_protocol: DrugMatrix - Regimen: Daily Repeat
Type: toxicity, organism-based, Sprague-Dawley
Set-up: regimen Daily Repeat, gender Male, age 6-8 weeks
condition: in vivo, po, 0 mg/kg, 72 h, tissue Plasma, route oral GAVAGE, dose level Control, time 3 day, […]
// NB: equality with 100 u/L counts as not fulfilled; only LACTATE DEHYDROGENASE strictly below is fulfilled

CC(=O)Nc1nnc(S(N)(=O)=O)s1 [ACETAZOLAMIDE]: not fulfilled

Lab note: confirm whether the reported LACTATE DEHYDROGENASE for this compound is below 100 u/L, equality not counting. compound: CN(CCOc1ccc(CC2SC(=O)NC2=O)cc1)c1ccccn1 (stereo not given)
fulfilled

Given C#C[C@]1(O)CC[C@H]2[C@@H]3CCc4cc(O)ccc4[C@H]3CC[C@@]21C , is recorded LACTATE DEHYDROGENASE strictly lower than 100 u/L?
not fulfilled

Strictly below 100 u/L in LACTATE DEHYDROGENASE? CC(C)Cc1ccc(CC(=O)O)cc1
not fulfilled

Does the reported LACTATE DEHYDROGENASE of the following compound sit strictly below 100 u/L? COc1ncnc(NS(=O)(=O)c2ccc(N)cc2)c1OC
not fulfilled

Strictly below 100 u/L: is that where LACTATE DEHYDROGENASE of NC[C@@H]1O[C@H](O[C@H]2[C@@H](O)[C@H](O[C@@H]3[C@@H](O)[C@H](N)C[C@H](N)[C@H]3O[C@H]3O[C@H](CN)[C@@H](O)[C@H](O)[C@H]3N)O[C@@H]2CO)[C@H](N)[C@@H](O)[C@@H]1O sits?
fulfilled

Does this compound meet the criterion LACTATE DEHYDROGENASE < 100 u/L? CCn1cc(C(=O)O)c(=O)c2cc(F)c(N3CCNCC3)nc21
not fulfilled

Just wondering, is LACTATE DEHYDROGENASE of CC[C@H](C)C(=O)O[C@H]1C[C@@H](C)C=C2C=C[C@H](C)[C@H](CC[C@@H]3C[C@@H](O)CC(=O)O3)[C@H]21 below 100 u/L?
not fulfilled

Does the reported LACTATE DEHYDROGENASE of the following compound sit strictly below 100 u/L? OCCN1CCN(CCCN2c3ccccc3Sc3ccc(C(F)(F)F)cc32)CC1
fulfilled

Could you please tell me whether LACTATE DEHYDROGENASE recorded for CC[C@H](C)C(=O)O[C@H]1C[C@H](O)C=C2C=C[C@H](C)[C@H](CC[C@@H](O)C[C@@H](O)CC(=O)O)[C@H]21 is less than 100 u/L?
fulfilled

====

Organism: Rattus norvegicus
test_protocol: DrugMatrix - Regimen: Daily Repeat
Assay type: toxicity, organism-based, Sprague-Dawley
Set-up: regimen Daily Repeat, gender Male, age 6-8 weeks
condition: in vivo, po, 0 mg/kg, 72 h, tissue Blood, route oral GAVAGE, dose level Control, time 3 day, vehicle .5 % CMC
measurement_name: ABSOLUTE MONOCYTE (CELLS/uL)
Give a bare numeral; the unit CELLS/uL is implied.

COc1ccc(/C=C/C(=O)Nc2ccccc2C(=O)O)cc1OC: 0
Cc1cnc(C(=O)NCCc2ccc(S(=O)(=O)NC(=O)NC3CCCCC3)cc2)cn1 [GLIPIZIDE]: 183.17
CC(C(=O)O)c1ccc(-c2ccccc2)c(F)c1 (configuration not stated) [FLURBIPROFEN]: 0
CC(C)(Sc1cc(C(C)(C)C)c(O)c(C(C)(C)C)c1)Sc1cc(C(C)(C)C)c(O)c(C(C)(C)C)c1 [PROBUCOL]: 0
C[C@@H](O)[C@H]1C(=O)N2C(C(=O)O)=C(S[C@@H]3CN[C@H](C(=O)N(C)C)C3)[C@H](C)[C@H]12 [MEROPENEM]: 0

Determine from records and report ABSOLUTE MONOCYTE for CO[C@H]1C[C@@H]2CC[C@@H](C)[C@@](O)(O2)C(=O)C(=O)N2CCCC[C@H]2C(=O)O[C@H]([C@H](C)C[C@@H]2CC[C@@H](O)[C@H](OC)C2)CC(=O)[C@H](C)/C=C(\C)[C@@H](O)[C@@H](OC)C(=O)[C@H](C)C[C@H](C)/C=C/C=C/C=C/1C [SIROLIMUS]
138.33

Answer with the recorded ABSOLUTE MONOCYTE of CCCCC1C(=O)N(c2ccccc2)N(c2ccccc2)C1=O [PHENYLBUTAZONE] only.
50.17
